system tested: SpCas9 (Streptococcus pyogenes serotype M1)
Sequence (Q99ZW2 whole entry): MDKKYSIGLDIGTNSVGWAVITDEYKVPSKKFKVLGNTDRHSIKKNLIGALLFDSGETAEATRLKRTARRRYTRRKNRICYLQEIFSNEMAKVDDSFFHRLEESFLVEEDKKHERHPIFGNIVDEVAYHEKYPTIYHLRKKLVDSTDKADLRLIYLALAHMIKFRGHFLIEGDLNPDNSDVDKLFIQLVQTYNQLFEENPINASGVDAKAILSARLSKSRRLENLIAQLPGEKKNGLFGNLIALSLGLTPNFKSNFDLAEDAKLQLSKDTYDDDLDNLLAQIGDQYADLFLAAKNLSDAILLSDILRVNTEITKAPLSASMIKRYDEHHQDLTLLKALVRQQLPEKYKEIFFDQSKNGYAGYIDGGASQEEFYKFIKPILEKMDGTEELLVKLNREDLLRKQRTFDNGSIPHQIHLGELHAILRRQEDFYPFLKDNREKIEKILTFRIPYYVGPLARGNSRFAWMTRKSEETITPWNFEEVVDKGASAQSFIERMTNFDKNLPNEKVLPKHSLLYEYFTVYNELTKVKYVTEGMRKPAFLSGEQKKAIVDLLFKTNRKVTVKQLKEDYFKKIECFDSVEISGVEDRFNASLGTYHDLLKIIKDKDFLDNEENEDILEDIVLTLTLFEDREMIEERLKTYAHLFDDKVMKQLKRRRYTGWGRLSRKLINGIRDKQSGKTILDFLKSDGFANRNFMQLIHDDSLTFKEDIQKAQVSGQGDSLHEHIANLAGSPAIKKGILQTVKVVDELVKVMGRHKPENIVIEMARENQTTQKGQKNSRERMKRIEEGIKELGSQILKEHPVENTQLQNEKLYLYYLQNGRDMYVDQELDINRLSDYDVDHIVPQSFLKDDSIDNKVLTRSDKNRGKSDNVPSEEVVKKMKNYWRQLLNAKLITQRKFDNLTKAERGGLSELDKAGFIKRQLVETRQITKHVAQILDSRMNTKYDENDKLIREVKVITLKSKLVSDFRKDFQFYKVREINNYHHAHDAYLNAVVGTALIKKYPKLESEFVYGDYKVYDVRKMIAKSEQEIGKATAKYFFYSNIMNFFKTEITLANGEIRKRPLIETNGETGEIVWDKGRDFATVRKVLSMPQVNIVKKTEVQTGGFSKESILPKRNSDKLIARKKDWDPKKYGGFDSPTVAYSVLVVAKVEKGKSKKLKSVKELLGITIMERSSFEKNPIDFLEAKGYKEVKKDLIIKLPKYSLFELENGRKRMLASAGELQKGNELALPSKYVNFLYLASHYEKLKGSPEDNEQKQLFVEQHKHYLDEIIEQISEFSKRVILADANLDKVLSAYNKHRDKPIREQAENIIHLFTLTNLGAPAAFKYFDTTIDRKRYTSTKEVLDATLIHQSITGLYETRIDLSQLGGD
In this section, each of the compounds is paired with its reported pIC50.
Remember, pIC50 is on a log scale: it is -log10 of the molar concentration.

- compound: "N#C[C@H]1N[C@@H](CO)[C@@H]1c1ccc(C#CC2CCCC2)cc1 [BRD9822]"
  system tested: "SpCas9 (Streptococcus pyogenes serotype M1)"
  number: 5.26

// next item, pIC50 requested
Q) GET /values?readout=pIC50&item= N#C[C@@H]1N[C@H](CO)[C@H]1c1ccc(-c2ccccc2F)cc1 [BRD7608]
A) 5.41
